Please go through the items and note down their pIC50.
System: NA of influenza virus A/Jena/5528/09
Assay type: biochemical, clinical H1N1 isolate A/Jena/5528/09
Numbers only, as −log10 of the molar value.

Here are 3 compounds together with their reported answers.
>>> value_measured("O=S(=O)(O)c1ccc2c(N=Nc3ccc(N=Nc4ccccc4)cc3)c(O)ccc2c1")
6.96
>>> value_measured("O=S(=O)(O)c1ccc2cc(N=Nc3cc(S(=O)(=O)O)c4cccnc4c3O)ccc2c1")
5.76
>>> value_measured("O=C(O)c1cc2ccccc2c(N=Nc2ccc(S(=O)(=O)O)cc2)c1O")
5.51

For each of the items listed, what is its pIC50?
1. CN(C)c1ccc(C=Nc2cc(S(=O)(=O)O)cc3cc(S(=O)(=O)O)cc(O)c23)cc1
2. O=C(O)c1cc2ccccc2c(N=Nc2ccc(S(=O)(=O)Nc3nccs3)cc2)c1O

1. 5.93
2. 6.62

Recorded values, source patent EP2599480A1.
